These data points were gathered from paper PMC6897945.

Test system: RKO human colorectal carcinoma cell line
PROTOCOL DETAILS: Cytotoxic activity, MTT method
Assay type: cell-based
MEASUREMENT SETUP: read-out: Cytotoxic activities IC50, RKO
ENDPOINT: IC50 (µM)
The figure you give is taken to be in µM; do not add the unit.

COMPOUND: CC[C@@]1(O[C@H]2C[C@H](N(C)C)[C@H](O)[C@H](C)O2)CCc2c(O)c3c(c(O)c2[C@H]1O[C@H]1C[C@H](N(C)C)[C@H](O[C@H]2CC[C@H](O[C@H]4CC[C@H](O)[C@H](C)O4)[C@H](C)O2)[C@H](C)O1)C(=O)c1cccc(O)c1C3=O [Compound 1, cytorhodin X]
IC50 / µM: 11.2

COMPOUND: CC[C@@]1(O)CCc2c(O)c3c(c(O)c2[C@H]1O[C@H]1C[C@H](N(C)C)[C@H](O)[C@H](C)O1)C(=O)c1cccc(O)c1C3=O [Compound 5, iremycin]
IC50 / µM: 15.2

Shift focus to the following entry.
# input compound: CC[C@@]1(O)C[C@H](O)c2c(O)c3c(c(O)c2[C@H]1C(=O)OC)C(=O)c1cccc(O)c1C3=O [Compound 10, ε-rhodomycinone] ; wanted: its IC50
18.5

###

# maps each entry to its log10(IC50)
System: HeLa human cervical carcinoma cell line
PROTOCOL DETAILS: Cytotoxic activity, MTT method
Format: cell-based
MEASUREMENT SETUP: read-out: Cytotoxic activities IC50, HeLa
Use the decimal logarithm of IC50 (nM).

COMPOUND: CC[C@@]1(O)C[C@H](O[C@H]2C[C@H](N(C)C)[C@H](O)[C@H](C)O2)c2c(O)c3c(c(O)c2[C@H]1C(=O)OC)C(=O)c1cccc(O)c1C3=O [Compound 9, ε-rhodomycin]
log10(IC50): 3.00
//
COMPOUND: CC[C@@]1(O)C[C@H](O[C@H]2C[C@H](N(C)C)[C@@H](O[C@H]3C[C@H](O)[C@@H](O[C@H]4CC[C@H](O)[C@H](C)O4)[C@H](C)O3)[C@H](C)O2)c2c(O)c3c(c(O)c2[C@H]1O[C@H]1C[C@H](N(C)C)[C@@H](O[C@H]2CC[C@H](O[C@H]4CC[C@H](O)[C@H](C)O4)[C@H](C)O2)[C@H](C)O1)C(=O)c1cccc(O)c1C3=O [Compound 6, cosmomycin C]
log10(IC50): 1.23
//
COMPOUND: CC[C@@]1(O[C@H]2C[C@H](N(C)C)[C@H](O)[C@H](C)O2)CCc2c(O)c3c(c(O)c2[C@H]1O[C@H]1C[C@H](N(C)C)[C@H](O[C@H]2CC[C@H](O[C@H]4CC[C@H](O)[C@H](C)O4)[C@H](C)O2)[C@H](C)O1)C(=O)c1cccc(O)c1C3=O [Compound 1, cytorhodin X]
log10(IC50): 3.31
//
COMPOUND: COc1cccc2c1C(=O)c1c(O)c3c(c(O)c1C2=O)C[C@@](O)(C(=O)CO)C[C@@H]3O[C@H]1C[C@H](N)[C@H](O)[C@H](C)O1 [Compound 23, doxorubicin, reference compound]
log10(IC50): 2.92
//
COMPOUND: CC[C@@]1(O)CCc2c(O)c3c(c(O)c2[C@H]1O[C@H]1C[C@H](N(C)C)[C@H](O[C@H]2CC[C@H](O[C@H]4CC[C@H](O)[C@H](C)O4)[C@H](C)O2)[C@H](C)O1)C(=O)c1cccc(O)c1C3=O [Compound 3, cosmomycin A]
log10(IC50): 2.18
//
COMPOUND: CC[C@@]1(O)CCc2c(O)c3c(c(O)c2[C@H]1O[C@H]1C[C@H](N(C)C)[C@H](O)[C@H](C)O1)C(=O)c1cccc(O)c1C3=O [Compound 5, iremycin]
log10(IC50): 4.00

# input compound: CC[C@@]1(O)CCc2c(O)c3c(c(O)c2[C@H]1O[C@H]1C[C@H](N(C)C)[C@H](O[C@H]2C[C@H](O)[C@H](O[C@H]4CC[C@H](O)[C@H](C)O4)[C@H](C)O2)[C@H](C)O1)C(=O)c1cccc(O)c1C3=O [Compound 4, cosmomycin B] ; wanted: its log10(IC50)
1.23

Next: CC[C@@]1(O[C@H]2C[C@H](N(C)C)[C@H](O)[C@H](C)O2)CCc2c(O)c3c(c(O)c2[C@H]1O[C@H]1C[C@H](N(C)C)[C@H](O[C@H]2C[C@H](O)[C@H](O[C@H]4CC[C@H](O)[C@H](C)O4)[C@H](C)O2)[C@H](C)O1)C(=O)c1cccc(O)c1C3=O [Compound 2, cytorhodin Y]
3.51

Next: CC[C@@]1(O)C[C@H](O)c2c(O)c3c(c(O)c2[C@H]1C(=O)OC)C(=O)c1cccc(O)c1C3=O [Compound 10, ε-rhodomycinone]
4.31

Next: CC[C@]1(O)Cc2c(O)c3c(c(O)c2[C@@H](O[C@H]2C[C@H](N(C)C)[C@H](O)[C@H](C)O2)C1)C(=O)c1c(O)cccc1C3=O [Compound 8, 10-decarbomethoxy-ε-rhodomycin]
3.12

###

Tested on: Staphylococcus aureus 745524
PROTOCOL DETAILS: Antibacterial activity, broth dilution MIC
Format: cell-based
MEASUREMENT SETUP: Staphylococcus aureus, 745524, read-out: MIC values, SA2
ENDPOINT: MIC (µg/mL)
The figure you give is taken to be in µg/mL; do not add the unit.

MOLECULE: CC[C@@]1(O)C[C@H](O[C@H]2C[C@H](N(C)C)[C@H](O)[C@H](C)O2)c2c(O)c3c(c(O)c2[C@H]1C(=O)OC)C(=O)c1cccc(O)c1C3=O
TARGET UNDER TEST: Staphylococcus aureus 745524
MIC [µg/mL]: 4
//
MOLECULE: CN[C@H](CC(C)C)C(=O)N[C@H]1C(=O)N[C@@H](CC(N)=O)C(=O)N[C@H]2C(=O)N[C@H]3C(=O)N[C@H](C(=O)N[C@H](C(=O)O)c4cc(O)cc(O)c4-c4cc3ccc4O)[C@H](O)c3ccc(c(Cl)c3)Oc3cc2cc(c3O[C@@H]2O[C@H](CO)[C@@H](O)[C@H](O)[C@H]2O[C@H]2C[C@](C)(N)[C@H](O)[C@H](C)O2)Oc2ccc(cc2Cl)[C@H]1O [Van, Vancomycin, reference compound]
TARGET UNDER TEST: Staphylococcus aureus 745524
MIC [µg/mL]: 1

# input molecule: CC[C@@]1(O)CCc2c(O)c3c(c(O)c2[C@H]1O[C@H]1C[C@H](N(C)C)[C@H](O)[C@H](C)O1)C(=O)c1cccc(O)c1C3=O ; wanted: its MIC
8

###

System: RKO human colorectal carcinoma cell line
PROTOCOL DETAILS: Cytotoxic activity, MTT method
Type: cell-based
MEASUREMENT SETUP: read-out: Cytotoxic activities IC50, RKO
# maps each entry to its log10 IC50
Use the decimal logarithm of IC50 (µM).

Example cases with answers are listed next.
MOLECULE: COc1cccc2c1C(=O)c1c(O)c3c(c(O)c1C2=O)C[C@@](O)(C(=O)CO)C[C@@H]3O[C@H]1C[C@H](N)[C@H](O)[C@H](C)O1 [Compound 23, doxorubicin, reference compound]
MEASURED: 0.16
//
MOLECULE: CC[C@@]1(O)C[C@H](O[C@H]2C[C@H](N(C)C)[C@H](O)[C@H](C)O2)c2c(O)c3c(c(O)c2[C@H]1C(=O)OC)C(=O)c1cccc(O)c1C3=O
MEASURED: 0.46
//
MOLECULE: CC[C@]1(O)Cc2c(O)c3c(c(O)c2[C@@H](O[C@H]2C[C@H](N(C)C)[C@H](O)[C@H](C)O2)C1)C(=O)c1c(O)cccc1C3=O
MEASURED: 0.52
//
MOLECULE: CC[C@@]1(O)CCc2c(O)c3c(c(O)c2[C@H]1O[C@H]1C[C@H](N(C)C)[C@H](O[C@H]2C[C@H](O)[C@H](O[C@H]4CC[C@H](O)[C@H](C)O4)[C@H](C)O2)[C@H](C)O1)C(=O)c1cccc(O)c1C3=O
MEASURED: -1.05
//
MOLECULE: CC[C@@]1(O)C[C@H](O[C@H]2C[C@H](N(C)C)[C@H](O[C@H]3C[C@H](O)[C@H](O[C@H]4CC[C@H](O)[C@H](C)O4)[C@H](C)O3)[C@H](C)O2)c2c(O)c3c(c(O)c2[C@H]1O[C@H]1C[C@H](N(C)C)[C@H](O[C@H]2C[C@H](O)[C@H](O[C@H]4CC[C@H](O)[C@H](C)O4)[C@H](C)O2)[C@H](C)O1)C(=O)c1cccc(O)c1C3=O
MEASURED: -1.00
//
MOLECULE: CC[C@@]1(O[C@H]2C[C@H](N(C)C)[C@H](O)[C@H](C)O2)CCc2c(O)c3c(c(O)c2[C@H]1O[C@H]1C[C@H](N(C)C)[C@H](O[C@H]2C[C@H](O)[C@H](O[C@H]4CC[C@H](O)[C@H](C)O4)[C@H](C)O2)[C@H](C)O1)C(=O)c1cccc(O)c1C3=O
MEASURED: 1.07
//
MOLECULE: CC[C@@]1(O)CCc2c(O)c3c(c(O)c2[C@H]1O[C@H]1C[C@H](N(C)C)[C@H](O[C@H]2CC[C@H](O[C@H]4CC[C@H](O)[C@H](C)O4)[C@H](C)O2)[C@H](C)O1)C(=O)c1cccc(O)c1C3=O
MEASURED: -1.08

Shift focus to the following entry.
# input molecule: CC[C@@]1(O)C[C@H](O[C@H]2C[C@H](N(C)C)[C@@H](O[C@H]3C[C@H](O)[C@@H](O[C@H]4CC[C@H](O)[C@H](C)O4)[C@H](C)O3)[C@H](C)O2)c2c(O)c3c(c(O)c2[C@H]1O[C@H]1C[C@H](N(C)C)[C@@H](O[C@H]2CC[C@H](O[C@H]4CC[C@H](O)[C@H](C)O4)[C@H](C)O2)[C@H](C)O1)C(=O)c1cccc(O)c1C3=O ; wanted: its log10 IC50
-1.77
